- measured_on: Type-1 angiotensin II receptor (Oryctolagus cuniculus, UniProt P34976)
- Sequence (P34976 whole entry): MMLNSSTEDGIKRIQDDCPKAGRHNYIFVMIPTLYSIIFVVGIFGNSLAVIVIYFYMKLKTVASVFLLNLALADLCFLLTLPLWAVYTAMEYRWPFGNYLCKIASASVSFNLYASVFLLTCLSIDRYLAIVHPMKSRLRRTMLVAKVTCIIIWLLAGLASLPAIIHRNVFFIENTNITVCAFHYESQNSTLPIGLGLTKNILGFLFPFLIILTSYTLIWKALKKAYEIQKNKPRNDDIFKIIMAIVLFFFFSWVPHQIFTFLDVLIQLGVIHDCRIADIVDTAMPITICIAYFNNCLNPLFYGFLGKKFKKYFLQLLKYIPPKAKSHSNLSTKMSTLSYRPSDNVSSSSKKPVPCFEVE
- assay_summary: Antagonist activity at angiotensin 2 receptor type 1 in New Zealand White rabbit descending thoracic aorta rings assessed as inhibition of angiotensin 2-induced contraction preincubated for 30 mins prior angiotensin 2 challenge
test_readout: IC50 (nM)

>>> experimental_result("CCCCc1nc(C)c(CC(=S)N(CC)CC)c(=O)n1Cc1ccc(-c2ccccc2-c2nnn[nH]2)cc1")
1.31

1. CCCCc1nc(C)c(CC(=O)N2CCCC2)c(=O)n1Cc1ccc(-c2ccccc2-c2nnn[nH]2)cc1
2. CCCCc1nc(C)c(CC(=O)N2CC(C)OC(C)C2)c(=O)n1Cc1ccc(-c2ccccc2-c2nnn[nH]2)cc1 (centres undefined)
3. CCCCc1nc(C)c(CC(=S)N2CCCCCC2)c(=O)n1Cc1ccc(-c2ccccc2-c2nnn[nH]2)cc1
IN: Reorder the items by IC50, least to greatest. Answer format: the labels, in the requested order.
OUT: 2, 1, 3

---

- assay_summary: Oral steady-state volume of distribution in Sprague-Dawley rat at 3 mg/kg
- Assay type: ADME, organism-based
- Parameters: dose 3 mg/kg
- condition_notes: in vivo, read-out: Vss/F
test_readout: Vd/F (L/kg)
Response body: numeric value in L/kg, unit text excluded.

IN: // lookup Vd/F for CCCCc1nc(C)c(CC(=S)N(C)C)c(=O)n1Cc1ccc(-c2ccccc2-c2nnn[n-]2)cc1.O.O.O.[K+]
OUT: 37.3

---

- assay_summary: Half life in Sprague-Dawley rat at 3 mg/kg, po
- Format: ADME, organism-based
- Set-up: dose 3 mg/kg, route oral
- condition_notes: in vivo
test_readout: half-life (h)
Response body: numeric value in h, unit text excluded.

IN: // lookup half-life for CCCCc1nc(C)c(CC(=S)N(C)C)c(=O)n1Cc1ccc(-c2ccccc2-c2nnn[n-]2)cc1.O.O.O.[K+]
OUT: 5.3

---

- assay_summary: Toxicity in po dosed mouse assessed maximum tolerated dose
- Format: organism-based
- condition_notes: in vivo
test_readout: MTD

IN: // lookup MTD for CCCCc1nc(C)c(CC(=S)N(C)C)c(=O)n1Cc1ccc(-c2ccccc2-c2nnn[n-]2)cc1.O.O.O.[K+]
OUT: > 2000 mg/kg

---

- assay_summary: Displacement of [125I]angiotensin 2 from angiotensin 2 receptor type 1 in Sprague-Dawley rat adrenal cortex membranes after 60 mins by gamma counting
- Format: cell membranes, Membrane
test_readout: IC50 (nM)

Consider the following illustrative entries.
>>> experimental_result("CCCCc1nc(C)c(CC(=O)N2CCC[C@H]2C(N)=O)c(=O)n1Cc1ccc(-c2ccccc2-c2nnn[nH]2)cc1")
17
>>> experimental_result("CCCCc1nc(C)c(CC(=O)N2CCC[C@H]2C(=O)OC)c(=O)n1Cc1ccc(-c2ccccc2-c2nnn[nH]2)cc1")
59.3

P. CCCCc1nc(C)c(CCC(=O)N2CCSCC2)c(=O)n1Cc1ccc(-c2ccccc2-c2nnn[nH]2)cc1
Q. CCCCc1nc(C)c(CCC(=O)N2CCCC2)c(=O)n1Cc1ccc(-c2ccccc2-c2nnn[nH]2)cc1
IN: Please let me know which one, P or Q , has a lower measured IC50 value. Answer by quoting the chosen item's label.
OUT: P

---

- Tested on: Rattus norvegicus
- assay_summary: Antihypertensive activity in iv dosed pithed rat model assessed as inhibition of angiotensin 2-induced pressor response by gould pressure transducer-coupled grass polygraphy
- Type: functional
test_readout: ED50 (mg/kg)
Response body: numeric value in mg/kg, unit text excluded.

Consider the following illustrative entries.
>>> experimental_result("CCCCc1nc(C)c(CC(=S)N(CC)CC)c(=O)n1Cc1ccc(-c2ccccc2-c2nnn[nH]2)cc1")
0.023
>>> experimental_result("CCCCc1nc(C)c(CCC(=O)N2CCCC2)c(=O)n1Cc1ccc(-c2ccccc2-c2nnn[nH]2)cc1")
0.206
>>> experimental_result("CCCCc1nc(C)c(CCC(=O)N2CCSCC2)c(=O)n1Cc1ccc(-c2ccccc2-c2nnn[nH]2)cc1")
0.204
>>> experimental_result("CCCCc1nc(C)c(CC(=O)OCC)c(=O)n1Cc1ccc(-c2ccccc2-c2nnn[nH]2)cc1")
0.108
>>> experimental_result("CCCCc1nc(C)c(CCC(=O)N2CCC[C@H]2C(=O)OC)c(=O)n1Cc1ccc(-c2ccccc2-c2nnn[nH]2)cc1")
0.063

IN: // lookup ED50 for CCCCc1nc(C)c(CC(=O)N2CCC[C@H]2C(N)=O)c(=O)n1Cc1ccc(-c2ccccc2-c2nnn[nH]2)cc1
OUT: 0.023

IN: Also check CCCCc1nc(C)c(CC(=O)O)c(=O)n1Cc1ccc(-c2ccccc2-c2nnn[nH]2)cc1
OUT: 0.13

IN: Also check CCCCc1nc(C)c(CC(=O)N2CCSCC2)c(=O)n1Cc1ccc(-c2ccccc2-c2nnn[nH]2)cc1
OUT: 0.038

IN: Also check CCCCc1nc(C)c(CCC(=O)N2CC(C)OC(C)C2)c(=O)n1Cc1ccc(-c2ccccc2-c2nnn[nH]2)cc1 (stereo unspecified)
OUT: 0.228

IN: Also check CCCCc1nc(C)c(CC(=O)N2CCCCC2)c(=O)n1Cc1ccc(-c2ccccc2-c2nnn[nH]2)cc1
OUT: 0.063

IN: Also check CCCCc1nc(C)c(CC(=O)N2CC(C)OC(C)C2)c(=O)n1Cc1ccc(-c2ccccc2-c2nnn[nH]2)cc1 (stereo unspecified)
OUT: 0.029

IN: Also check CCCCc1nc(C)c(CCC(=O)N2CCCCC2)c(=O)n1Cc1ccc(-c2ccccc2-c2nnn[nH]2)cc1
OUT: 0.164

IN: Also check CCCCc1nc(C)c(CCC(=O)OCC)c(=O)n1Cc1ccc(-c2ccccc2-c2nnn[nH]2)cc1
OUT: 0.066

IN: Also check CCCCc1nc(Cl)c(CO)n1Cc1ccc(-c2ccccc2-c2nnn[nH]2)cc1
OUT: 0.336

IN: Also check CCCCc1nc(C)c(CC(=O)N2CCCC2)c(=O)n1Cc1ccc(-c2ccccc2-c2nnn[nH]2)cc1
OUT: 0.056

IN: Also check CCCCc1nc(C)c(CCC(=O)O)c(=O)n1Cc1ccc(-c2ccccc2-c2nnn[nH]2)cc1
OUT: 0.094

---

- assay_summary: Displacement of [125I]angiotensin 2 from angiotensin 2 receptor type 1 in Sprague-Dawley rat adrenal cortex membranes after 60 mins by gamma counting
- Format: cell membranes, Membrane
pIC50: −log10 of the molar value.
test_readout: pIC50

1. CCCCc1nc(C)c(CCC(=O)N2CCOCC2)c(=O)n1Cc1ccc(-c2ccccc2-c2nnn[nH]2)cc1
2. CCCCc1nc(C)c(CC(=O)N2CCOCC2)c(=O)n1Cc1ccc(-c2ccccc2-c2nnn[nH]2)cc1
3. CCCCc1nc(C)c(CC(=O)N2CCSCC2)c(=O)n1Cc1ccc(-c2ccccc2-c2nnn[nH]2)cc1
4. CCCCc1nc(C)c(CCC(=O)O)c(=O)n1Cc1ccc(-c2ccccc2-c2nnn[nH]2)cc1
IN: Rank descending by pIC50: all 4 molecules from above. Answer format: the labels, in the requested order.
OUT: 3, 2, 1, 4
(3: 8.05, 2: 7.64, 1: 7.22, 4: 6.51)

---

- assay_summary: Displacement of [125I]angiotensin 2 from angiotensin 2 receptor type 1 in Sprague-Dawley rat adrenal cortex membranes after 60 mins by gamma counting
- Assay type: cell membranes, Membrane
pIC50: −log10 of the molar value.
test_readout: pIC50

Consider the following illustrative entries.
>>> experimental_result("CCCCc1nc(C)c(CC(=S)N(CC)CC)c(=O)n1Cc1ccc(-c2ccccc2-c2nnn[nH]2)cc1")
8.20
>>> experimental_result("CCCCc1nc(C)c(CC(=O)N2CC(C)OC(C)C2)c(=O)n1Cc1ccc(-c2ccccc2-c2nnn[nH]2)cc1 (centres undefined)")
7.62
>>> experimental_result("CCCCc1nc(C)c(CC(=O)N2CCN(C)CC2)c(=O)n1Cc1ccc(-c2ccccc2-c2nnn[nH]2)cc1")
7.72
>>> experimental_result("CCCCc1nc(C)c(CC(=O)OCC)c(=O)n1Cc1ccc(-c2ccccc2-c2nnn[nH]2)cc1")
7.18

a. CCCCc1nc(Cl)c(CO)n1Cc1ccc(-c2ccccc2-c2nnn[nH]2)cc1
b. CCCCc1nc(C)c(CC(=O)O)c(=O)n1Cc1ccc(-c2ccccc2-c2nnn[nH]2)cc1
IN: Please let me know which one, a or b , has a lower measured pIC50 value. Answer by quoting the chosen item's label.
OUT: b
(b: 6.37, a: 7.10)

---

- assay_summary: Displacement of [125I]angiotensin 2 from angiotensin 2 receptor type 1 in Sprague-Dawley rat adrenal cortex membranes after 60 mins by gamma counting
- Assay type: cell membranes, Membrane
test_readout: IC50 (nM)

>>> experimental_result("CCCCc1nc(C)c(CCC(=O)N2CC(C)OC(C)C2)c(=O)n1Cc1ccc(-c2ccccc2-c2nnn[nH]2)cc1 (stereo not drawn)")
72.6
>>> experimental_result("CCCCc1nc(C)c(CCC(=O)N2CCCCC2)c(=O)n1Cc1ccc(-c2ccccc2-c2nnn[nH]2)cc1")
64.7
>>> experimental_result("CCCCc1nc(C)c(CC(=S)N(C)C)c(=O)n1Cc1ccc(-c2ccccc2-c2nnn[nH]2)cc1")
0.13
